- System: ginsenoside glycosidase I
- assayComment: Hydrolysis of ginsenosides with Fraction 36 (ginsenoside glycosidase I)
- Type: biochemical, Aspergillus niger
- conditions: Fraction 36; substrates Rb1, Rb2, Rc, Rd 0.5%; Rg3, F2, Rh2, C—K, Rg2 0.05%; pH 5.0, 30° C.
propertyMeasured: Percentage of C—K in the reaction product

compound	observed
CC(C)=CCC[C@](C)(O[C@@H]1O[C@H](CO)[C@@H](O)[C@H](O)[C@H]1O)[C@H]1CC[C@]2(C)[C@@H]1[C@H](O)C[C@@H]1[C@@]3(C)CC[C@H](O)C(C)(C)[C@@H]3CC[C@]12C [C—K, ginsenoside C-K]	97%
CC(C)=CCC[C@](C)(O[C@@H]1O[C@H](CO[C@@H]2OC[C@H](O)[C@H](O)[C@H]2O)[C@@H](O)[C@H](O)[C@H]1O)[C@H]1CC[C@]2(C)[C@@H]1[C@H](O)C[C@@H]1[C@@]3(C)CC[C@H](O[C@@H]4O[C@H](CO)[C@@H](O)[C@H](O)[C@H]4O[C@@H]4O[C@H](CO)[C@@H](O)[C@H](O)[C@H]4O)C(C)(C)[C@@H]3CC[C@]12C [Rb2, ginsenoside Rb2]	54%
CC(C)=CCC[C@](C)(O[C@@H]1O[C@H](CO)[C@@H](O)[C@H](O)[C@H]1O)[C@H]1CC[C@]2(C)[C@@H]1[C@H](O)C[C@@H]1[C@@]3(C)CC[C@H](O[C@@H]4O[C@H](CO)[C@@H](O)[C@H](O)[C@H]4O)C(C)(C)[C@@H]3CC[C@]12C [F2, ginsenoside F2]	62%

----------
- System: ginsenoside glycosidase I
- assayComment: Hydrolysis of ginsenosides with Fraction 36 (ginsenoside glycosidase I)
- Assay type: biochemical, Aspergillus niger
- conditions: Fraction 36; substrates Rb1, Rb2, Rc, Rd 0.5%; Rg3, F2, Rh2, C—K, Rg2 0.05%; pH 5.0, 30° C.
// reported Percentage of Rh2 in the reaction product for each item listed
propertyMeasured: Percentage of Rh2 in the reaction product (%)

compound	unitName	observed
CC(C)=CCC[C@](C)(O[C@@H]1O[C@H](CO)[C@@H](O)[C@H](O)[C@H]1O)[C@H]1CC[C@]2(C)[C@@H]1[C@H](O)C[C@@H]1[C@@]3(C)CC[C@H](O[C@@H]4O[C@H](CO)[C@@H](O)[C@H](O)[C@H]4O)C(C)(C)[C@@H]3CC[C@]12C [F2, ginsenoside F2]	%	3
CC(C)=CCC[C@](C)(O[C@@H]1O[C@H](CO[C@@H]2OC[C@H](O)[C@H](O)[C@H]2O)[C@@H](O)[C@H](O)[C@H]1O)[C@H]1CC[C@]2(C)[C@@H]1[C@H](O)C[C@@H]1[C@@]3(C)CC[C@H](O[C@@H]4O[C@H](CO)[C@@H](O)[C@H](O)[C@H]4O[C@@H]4O[C@H](CO)[C@@H](O)[C@H](O)[C@H]4O)C(C)(C)[C@@H]3CC[C@]12C [Rb2, ginsenoside Rb2]	%	1
CC(C)=CCC[C@](C)(O)[C@H]1CC[C@]2(C)[C@@H]1[C@H](O)C[C@@H]1[C@@]3(C)CC[C@H](O[C@@H]4O[C@H](CO)[C@@H](O)[C@H](O)[C@H]4O)C(C)(C)[C@@H]3CC[C@]12C [Rh2, ginsenoside Rh2]	%	89
CC(C)=CCC[C@](C)(O[C@@H]1O[C@H](CO[C@@H]2O[C@@H](CO)[C@H](O)[C@H]2O)[C@@H](O)[C@H](O)[C@H]1O)[C@H]1CC[C@]2(C)[C@@H]1[C@H](O)C[C@@H]1[C@@]3(C)CC[C@H](O[C@@H]4O[C@H](CO)[C@@H](O)[C@H](O)[C@H]4O[C@@H]4O[C@H](CO)[C@@H](O)[C@H](O)[C@H]4O)C(C)(C)[C@@H]3CC[C@]12C [Rc, ginsenoside Rc]	%	2
CC(C)=CCC[C@](C)(O)[C@H]1CC[C@]2(C)[C@@H]1[C@H](O)C[C@@H]1[C@@]3(C)CC[C@H](O[C@@H]4O[C@H](CO)[C@@H](O)[C@H](O)[C@H]4O[C@@H]4O[C@H](CO)[C@@H](O)[C@H](O)[C@H]4O)C(C)(C)[C@@H]3CC[C@]12C [Rg3, ginsenoside Rg3]	%	57
CC(C)=CCC[C@](C)(O[C@@H]1O[C@H](CO[C@@H]2O[C@H](CO)[C@@H](O)[C@H](O)[C@H]2O)[C@@H](O)[C@H](O)[C@H]1O)[C@H]1CC[C@]2(C)[C@@H]1[C@H](O)C[C@@H]1[C@@]3(C)CC[C@H](O[C@@H]4O[C@H](CO)[C@@H](O)[C@H](O)[C@H]4O[C@@H]4O[C@H](CO)[C@@H](O)[C@H](O)[C@H]4O)C(C)(C)[C@@H]3CC[C@]12C [Rb1, ginsenoside Rb1]	%	1
